Test system: Aspergillus flavus
Test: Antifungal activity against Aspergillus flavus
Format: functional
PARAMETER: MIC

> print(dat)
                                   compound   reading
1  CC(C)CC1NC2(C(=O)Nc3ccccc32)C(C(=O)c2ccc(F)cc2)C1c1ccc(Cl)cc1 (stereo unspecified)  20 µg/mL
2  OC(Cn1cncn1)(Cn1cncn1)c1ccc(F)cc1F [FLUCONAZOLE]  20 µg/mL
3  CC(C)CC1NC2(C(=O)Nc3ccccc32)C(C(=O)c2ccc(F)cc2)C1c1ccc(Br)cc1 (stereo unspecified)  20 µg/mL
4  CC(C)CC1NC2(C(=O)Nc3ccccc32)C(C(=O)c2ccc(F)cc2)C1c1ccccc1 (stereo unspecified)  20 µg/mL
5  O=C(c1ccc(F)cc1)C1C(c2ccc(Cl)cc2)C(CO)NC12C(=O)Nc1ccccc12 (stereo unspecified)  20 µg/mL
6  O=C(c1ccc(F)cc1)C1C(c2ccc(Br)cc2)C(CO)NC12C(=O)Nc1ccccc12 (stereo unspecified)  30 µg/mL
